Field: growth inhibition. Provide a value for each of the molecules that follow.
Test: NCI Yeast Anticancer Drug Screen. Data for the sgs1 mgt1 strain (AID 161);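 note: 0% = growth of cultures given vehicle only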
Details: S. cerevisiae sgs1 mgt1 strain, at 50.0 µM, active compounds read high
Compounds without any hit were thinned out: in the full panel of roughly 79,000, 15% have a hit.
The reply should be a number in %, with the unit left off.

Input: growth inhibition lookup needed for "CCOC(=O)NN(C(=O)OCC)C(=C(C1=CCCCC1)N1CCOCC1)N(NC(=O)OCC)C(=O)OCC" , thanks.
Output: 3.3

Input: Also need "Cc1cccc(NCc2ccncc2)n1" , thanks.
Output: 26.8

Input: Also need "O=C(O)CCCCCN1C(=O)c2cccc([N+](=O)[O-])c2C1=O" , thanks.
Output: 22.5

Input: Also need COc1ccc(C2N(c3ccccc3)OC(=O)N2c2ccccc2)cc1 (configuration not stated) , thanks.
Output: 16.1

Input: Also need "C/C(=N\NC(N)=S)c1ccc(C)cc1C" , thanks.
Output: 57

Input: Also need "FC(F)(F)c1cccc(-c2nc3nc(Cl)c(Cl)nc3[nH]2)c1" , thanks.
Output: -5.7

Input: Also need N#Cc1ccccc1NC(=O)C(=O)C1NC(=S)NC1=O (configuration not stated) , thanks.
Output: 26

Input: Also need CN(C)[C@@H]1C(=O)C(C(=O)NCNC2CC(C)(C)N(O)C(C)(C)C2)=C(O)C2(O)C(=O)C3=C(O)c4c(O)cccc4[C@@](C)(O)C3CC12 (some centres not stated) , thanks.
Output: 2.55

Input: Also need CC1=NN(C(=O)CC(=O)Nc2cccc(C)c2)C(=O)C1N=Nc1ccc(C(=O)O)cc1 (configuration not stated) , thanks.
Output: 12.6

Input: Also need "N#CC(=O)Nc1ccc(F)cc1" , thanks.
Output: -6.15

Input: Also need CCC(C)Sc1nc2ccc(NC(=O)/C=C/C(=O)O)cc2s1 (configuration not stated) , thanks.
Output: 11.7

Input: Also need "N#C/C(=C1\OC(N)=C(c2ccc(Cl)cc2)C1=O)c1ccc(Cl)cc1" , thanks.
Output: 6.8

Input: Also need "CN(C=O)c1ccc([N+](=O)[O-])cc1" , thanks.
Output: -7.15

Input: Also need "O=C(NC(Nc1ccc(F)c(Cl)c1)(C(F)(F)F)C(F)(F)F)OCc1ccccc1" , thanks.
Output: -23.1

Input: Also need "CCOC(=O)c1ccnc2ccccc12" , thanks.
Output: 1.1

Input: Also need "CN(C)CCn1c(CO)nc2c1c(=O)n(C)c(=O)n2C" , thanks.
Output: -21.4

Input: Also need "Cc1ccc([N+](=O)[O-])cc1NC(=O)N(C)Cc1ccc(Cl)cc1" , thanks.
Output: -12.2

Input: Also need CSc1nc2c(c(O)c(C)c(=O)n2C2OC(COC(C)=O)C(OC(C)=O)C(OC(C)=O)C2OC(C)=O)c(=O)n1C (configuration not stated) , thanks.
Output: 62.8

Input: Also need CC1=C(C)CC2C(=O)C=CC(=O)C2C1 (configuration not stated) , thanks.
Output: -10.7

Input: Also need "CN=C(NN(C)C)c1ccc(NC(=O)c2ccc(C(=O)Nc3ccc(C(=NC)NN(C)C)cc3)cc2)cc1" , thanks.
Output: 10.8

Input: Also need COc1ccc(Nc2nc(N)nc3c2ncn3C2OC(CO)C(O)C2O)cc1 (configuration not stated) , thanks.
Output: -13.2

Input: Also need "COn1c(-c2ccccc2)nc2c1C(=O)N(C)CN2C" , thanks.
Output: 7.3
